Data credit: ChEMBL document CHEMBL4325921

Assay Name: Protein binding in mouse plasma
Type: ADME, cell-free
Details: read-out: PPB (converted)
Items are presented alongside their recorded fraction unbound.
Answer with a bare number; do not write a unit.

>>> reported_measurement("Nc1nc(OCc2ccccc2)c2[nH]nnc2n1")
0.127

// switching to the query molecule
Look at this molecule and give its reported fraction unbound. Nc1cc(SCc2ccccc2F)c2nn[nH]c2n1 0.192

---

Study Target: Cytochrome P450 3A4 (Homo sapiens)
Sequence (P08684 whole entry): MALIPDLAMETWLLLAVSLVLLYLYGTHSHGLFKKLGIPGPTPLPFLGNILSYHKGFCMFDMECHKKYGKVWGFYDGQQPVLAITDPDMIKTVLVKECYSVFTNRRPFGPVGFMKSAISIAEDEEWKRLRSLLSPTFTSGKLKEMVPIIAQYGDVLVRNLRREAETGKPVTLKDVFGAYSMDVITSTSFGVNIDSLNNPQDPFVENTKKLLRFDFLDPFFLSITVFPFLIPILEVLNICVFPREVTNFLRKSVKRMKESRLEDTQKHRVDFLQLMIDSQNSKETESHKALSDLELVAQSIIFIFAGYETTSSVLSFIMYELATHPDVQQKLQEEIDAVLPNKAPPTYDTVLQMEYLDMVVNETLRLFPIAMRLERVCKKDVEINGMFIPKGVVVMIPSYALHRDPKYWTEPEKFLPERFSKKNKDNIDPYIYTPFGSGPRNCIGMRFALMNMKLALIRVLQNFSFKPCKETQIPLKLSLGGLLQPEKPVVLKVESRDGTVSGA
Measured Endpoint: pIC50
Kindly note that pIC50 refers to -log10 of the concentration in mol/L and answer with the value alone.

Look at this molecule and give its reported pIC50. Cc1nn(-c2ccccc2)nc1COc1cc(N)nc2[nH]nnc12 6.43
